- System: 556581-035-R-J1-PDC complex spheroid viability
- ASSAY_INFO: Anticancer human tumor 556581-035-R-J1-PDC patient-derived ovarian carcinoma cell line growth inhibition
- RUN_CONDITIONS: second compound 3.16 µM; first compound 0.000949 µM; active compounds read low
READOUT_LABEL: viability, T/C (%)
Write down the numeric answer in % and omit the unit.

Nc1ncn(C2CC(O)C(CO)S2)c(=O)n1 (stereo unspecified) + NC1CC1c1ccc(-c2cccc(O)c2)cc1; 88.7

Please report the recorded viability, T/C for Nc1ncn(C2CC(O)C(CO)S2)c(=O)n1 (stereo unspecified) + NC1CCC(NC2CC2c2ccccc2)CC1 . 96

Name the recorded viability, T/C for Nc1ccn(C2OC(CO)C(O)C2(F)F)c(=O)n1 (stereo unspecified) + NC1CCC(NC2CC2c2ccccc2)CC1 . 63

For CCc1c2c(nc3ccc(O)cc13)-c1cc3c(c(=O)n1C2)COC(=O)[C@]3(O)CC + NC1CC1c1ccc(-c2cccc(O)c2)cc1 , what is its reported viability, T/C? 13.8

If you can, please state the reported viability, T/C value of CCc1c2c(nc3ccc(O)cc13)-c1cc3c(c(=O)n1C2)COC(=O)[C@]3(O)CC + NC1CCC(NC2CC2c2ccccc2)CC1 . 20.9

State the recorded viability, T/C for this entry: Nc1ccn(C2OC(CO)C(O)C2(F)F)c(=O)n1 (stereo unspecified) + NC1CC1c1ccc(-c2cccc(O)c2)cc1 71

----------
- System: 556581-035-R-J1-PDC complex spheroid viability
- ASSAY_INFO: Anticancer human tumor 556581-035-R-J1-PDC cell line growth inhibition; active = viability on the fitted dose curve at most 10% of control; inactive = the rest;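 note: spheroids exposed to agents for seven days; 100% = DMSO vehicle control wells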
- RUN_CONDITIONS: second compound 1 µM; first compound 0.949 µM
Choose one outcome from this list and give only that: active, inactive

O=C(C=Cc1cccc(S(=O)(=O)Nc2ccccc2)c1)NO + NC1CC1c1ccc(-c2cccc(O)c2)cc1; active
O=C(C=Cc1cccc(S(=O)(=O)Nc2ccccc2)c1)NO + NC1CCC(NC2CC2c2ccccc2)CC1; active
CCN(c1cc(-c2ccc(CN3CCOCC3)cc2)cc(C(=O)NCc2c(C)cc(C)[nH]c2=O)c1C)C1CCOCC1 + NC1CC1c1ccc(-c2cccc(O)c2)cc1; inactive
COc1cc(C2c3cc4c(cc3C(OC3OC5COC(C)OC5C(O)C3O)C3COC(=O)C23)OCO4)cc(OC)c1O (stereo not given) + NC1CC1c1ccc(-c2cccc(O)c2)cc1; inactive
NS(=O)(=O)OCC1CC(n2ccc3c(NC4CCc5ccccc54)ncnc32)CC1O (stereo not given) + NC1CC1c1ccc(-c2cccc(O)c2)cc1; inactive
CCN(c1cc(-c2ccc(CN3CCOCC3)cc2)cc(C(=O)NCc2c(C)cc(C)[nH]c2=O)c1C)C1CCOCC1 + NC1CCC(NC2CC2c2ccccc2)CC1; inactive
Nc1ccccc1NC(=O)c1ccc(CNC(=O)OCc2cccnc2)cc1 + NC1CCC(NC2CC2c2ccccc2)CC1; inactive
Nc1ccccc1NC(=O)c1ccc(CNC(=O)OCc2cccnc2)cc1 + NC1CC1c1ccc(-c2cccc(O)c2)cc1; inactive
NS(=O)(=O)OCC1CC(n2ccc3c(NC4CCc5ccccc54)ncnc32)CC1O (stereo not given) + NC1CCC(NC2CC2c2ccccc2)CC1; inactive

Moving on to the next compound.
Field: outcome | Entry: COc1cc(C2c3cc4c(cc3C(OC3OC5COC(C)OC5C(O)C3O)C3COC(=O)C23)OCO4)cc(OC)c1O (stereo not given) + NC1CCC(NC2CC2c2ccccc2)CC1 inactive

The values you see were collected from PubChem BioAssay AID1918938.
